Task for the reader: assign each of the following variants its reported self-cleavage kobs at 40 uM GlcN6P.
B1: glmS ribozyme (parent)
chain: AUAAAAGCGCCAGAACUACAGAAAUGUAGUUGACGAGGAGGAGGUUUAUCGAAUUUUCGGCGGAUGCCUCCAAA

- Variants of: B1
- experiment.summary: self-cleavage kobs at 40 uM GlcN6P; higher = faster cleavage; RNA array
- stated.conditions: with glucosamine-6-phosphate
This sample holds only a part of the variants without activity.

Query: # return recorded self-cleavage kobs at 40 uM GlcN6P for entry A14G A15G
Result: 0.00218 s⁻¹

Query: Entry C8A C68G needs its self-cleavage kobs at 40 uM GlcN6P filled in; supply it.
Result: 0.000368 s⁻¹

Query: Write down self-cleavage kobs at 40 uM GlcN6P measured for item U46A A64C
Result: < 1e-05 s⁻¹

Query: Given A14G A64G , respond with its self-cleavage kobs at 40 uM GlcN6P.
Result: 0.00184 s⁻¹

Query: Quote self-cleavage kobs at 40 uM GlcN6P reported for A15C G63U please.
Result: < 1e-05 s⁻¹

Query: Please report self-cleavage kobs at 40 uM GlcN6P for the following variant: G7U G32U
Result: < 1e-05 s⁻¹

Query: Please supply the value of reported self-cleavage kobs at 40 uM GlcN6P for the item G37C G41U U46C
Result: < 1e-05 s⁻¹

Query: Give reported self-cleavage kobs at 40 uM GlcN6P value for U45G G59C
Result: < 1e-05 s⁻¹

Query: Please list self-cleavage kobs at 40 uM GlcN6P recorded for the variant C10A G32A G51A
Result: < 1e-05 s⁻¹

Query: Recall and state the measured self-cleavage kobs at 40 uM GlcN6P for A15U A39U .
Result: 8.33e-05 s⁻¹

Query: # return recorded self-cleavage kobs at 40 uM GlcN6P for entry U45A C70U
Result: 0.00112 s⁻¹

Query: Indicate its recorded self-cleavage kobs at 40 uM GlcN6P; the variant in question is G13U A36G G62U G66U C70A
Result: < 1e-05 s⁻¹

Query: Give reported self-cleavage kobs at 40 uM GlcN6P value for G41U U56A
Result: 3.42e-05 s⁻¹

Query: Input C8U G35U A39U G43U , output reported self-cleavage kobs at 40 uM GlcN6P.
Result: < 1e-05 s⁻¹

Query: Using known records, supply self-cleavage kobs at 40 uM GlcN6P for G7C U47C
Result: < 1e-05 s⁻¹

Query: Supply reported self-cleavage kobs at 40 uM GlcN6P belonging to this variant: G32A A53G
Result: 5.52e-05 s⁻¹

Query: Entry G7C G51A needs its self-cleavage kobs at 40 uM GlcN6P filled in; supply it.
Result: < 1e-05 s⁻¹

Query: Query self-cleavage kobs at 40 uM GlcN6P for G40U G59C G60U C70G
Result: < 1e-05 s⁻¹

Query: Using the record for C8U G63C , state its measured self-cleavage kobs at 40 uM GlcN6P.
Result: < 1e-05 s⁻¹

Query: Please report self-cleavage kobs at 40 uM GlcN6P for the following variant: C8U G29C C50A
Result: < 1e-05 s⁻¹

Query: Query self-cleavage kobs at 40 uM GlcN6P for U45C U55C
Result: 5.77e-05 s⁻¹

Query: State, in one line, measured self-cleavage kobs at 40 uM GlcN6P of U45C C68U
Result: 3.71e-05 s⁻¹

Query: Please give measured self-cleavage kobs at 40 uM GlcN6P of the following entry: A39G C71U
Result: 0.00144 s⁻¹

Query: Check the records and state self-cleavage kobs at 40 uM GlcN6P for A6G C10A
Result: < 1e-05 s⁻¹

Query: Report measured self-cleavage kobs at 40 uM GlcN6P; entry is G35C G60A
Result: < 1e-05 s⁻¹

Query: // fetch self-cleavage kobs at 40 uM GlcN6P given entry G43U C50U
Result: < 1e-05 s⁻¹

Query: Supply measured self-cleavage kobs at 40 uM GlcN6P of U30C C50A A53G U69C C70G in your reply.
Result: 5.5e-05 s⁻¹

Query: Name the recorded self-cleavage kobs at 40 uM GlcN6P of the item C34U G40U C50U in your answer.
Result: < 1e-05 s⁻¹

Query: For the variant U55A C67A , report self-cleavage kobs at 40 uM GlcN6P.
Result: 0.000444 s⁻¹

Query: Read off the recorded self-cleavage kobs at 40 uM GlcN6P for C8A G13U G41C U55C U65A U69G
Result: < 1e-05 s⁻¹

Query: Indicate the recorded self-cleavage kobs at 40 uM GlcN6P value for this variant: C16U U30A G40A
Result: < 1e-05 s⁻¹

Query: Check the records and state self-cleavage kobs at 40 uM GlcN6P for A14U U49C
Result: < 1e-05 s⁻¹

Query: For U54G U56C , write its self-cleavage kobs at 40 uM GlcN6P.
Result: 6.58e-05 s⁻¹

Query: Input G13A G62A , output reported self-cleavage kobs at 40 uM GlcN6P.
Result: < 1e-05 s⁻¹

Query: In one line, give reported self-cleavage kobs at 40 uM GlcN6P of the entry U46G U47G C67A .
Result: 7.27e-05 s⁻¹

Query: Give a short answer stating reported self-cleavage kobs at 40 uM GlcN6P for C10A G13A U56C .
Result: < 1e-05 s⁻¹

Query: Name the recorded self-cleavage kobs at 40 uM GlcN6P of the item G13U U31A A39C C68U U69A in your answer.
Result: < 1e-05 s⁻¹

Query: Supply reported self-cleavage kobs at 40 uM GlcN6P belonging to this variant: G41U U57G
Result: < 1e-05 s⁻¹

Query: Supply recorded self-cleavage kobs at 40 uM GlcN6P for A33U G41U here.
Result: < 1e-05 s⁻¹

Query: Please indicate self-cleavage kobs at 40 uM GlcN6P recorded for G60U C67A
Result: < 1e-05 s⁻¹

Query: Give the measured self-cleavage kobs at 40 uM GlcN6P for A6U G40C
Result: < 1e-05 s⁻¹

Query: Tell us which self-cleavage kobs at 40 uM GlcN6P value is on record for G35U G43U U54A
Result: < 1e-05 s⁻¹

Query: Return the recorded self-cleavage kobs at 40 uM GlcN6P value; entry: G35U G37A
Result: < 1e-05 s⁻¹

Query: Give the reported value of self-cleavage kobs at 40 uM GlcN6P for this record: A1U U2G A3G C8G A12U G63C C68A
Result: < 1e-05 s⁻¹

Query: Tell me self-cleavage kobs at 40 uM GlcN6P reported for G9U A33C U69G
Result: < 1e-05 s⁻¹

Query: Give reported self-cleavage kobs at 40 uM GlcN6P value for A6G C58A
Result: < 1e-05 s⁻¹
